assay.target: T1, biotinylated human VWF cysteine knot (CK) domain construct (human, UniProt P04275 2724-2813, biotinylated in vitro (BirA) on the biotinylation tag; one N-glycan)
T1 construct: Expressed in HEK293 EBNA cells; disulfide-linked homodimer; also called human VWF CK; human VWF CK domain; not shown: in vitro biotinylation tag, HRV-3C site and 3 VWF residues before the CK domain
protocol.summary: SPR, scFv captured via anti-SV5, CK domain injected, pH 5.5, apparent Kd;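 also: scFvs from crude yeast supernatants captured on chip-bound anti-SV5 antibody, Kd computed as koff divided by kon, dimeric CK construct likely makes affinity appear higher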
measured.parameter: pKd
Note on pKd: it is the negative log10 of concentration, concentration in mol/L.

Lib1_P1_A1_scFv (scFv, VH-linker-VL; not shown: C-terminal 3xFLAG and SV5 tags) scFv: QVQLVQSGAEVKKPGASVKVSCKVSGDTLSNYAIHWVRQAPGKGLEWMGGINPNAGTTIYAQKFQGRVTMTEDTSTDTAYMELSSLKSEDTAVYYCARDSSSWSQFGYYYYYMDVWGKGTTVTVSSSGGSTITSYNVYYTKLSSSGTDIQMTQSPSSVSASVGDRVTITCRASQSIGDFLAWYQQKPGKAPKLLIYDASHLQTGVPSRFSGSGSGTDFTLTISSLQPEDFANYYCQQTSTIPPTFGGGTKVEIK    9.69

For the next question, use this binder.
Query: Recorded pKd of 5802_Lib4_scFv (scFv, VH-linker-VL; not shown: C-terminal 3xFLAG and SV5 tags) scFv: QVQLQESGPGLVKPSQTLSLTCTVSGYSISSGDYHWSWIRQPPGKGLEWIGYINPSGSADYNPSLKSRVTMSVDTSKNQFSLKVNSVTAADTAVYYCARDGVAATYYYYYGMDVWGQGTTVTVSSSGGSTITSYNVYYTKLSSSGTEIVMTQSPATLSLSPGERATLSCRASHSIGSNLAWYQQKPGQAPRLLIYDATTRATGIPARFSGSGSGTDFTLTISSLEPEDFAVYYCQQAYSFPLTFGGGTKVEIK , please.
Reply: 8.96

Every entry's value here was drawn from patent US20250154283A1.
